Test system: Glutamate receptor ionotropic, NMDA 3A (GRIN3A) ligand-binding domain
assay.overview: binders of NR3A ligand-binding domain, primary screen, biophysical, differential scanning fluorimetry, uHTS (AID 1259313)
condition.label: NR3A LBD differential scanning fluorimetry, at 25 µM, stronger effect = higher value, 0% = protein alone, 100% = glycine-bound protein
About 8,500 (2.5%) of roughly 340,000 compounds were called active. The sample holds actives, similar compounds and a random draw of the others, so the mix is not that of the screen.
molecules and their reported Tm shift relative to glycine control
Just the number please, in %, no unit attached.

Examples with their reported Tm shift relative to glycine control follow.
>>> value("Cc1cc(Cl)ccc1OCCCC(=O)NCc1ccncc1")
21.3
>>> value("COc1ccccc1C(=O)NC(=O)COC(=O)C1CC1")
-1.81
>>> value("Cc1ccc(Nc2ccccc2N)cc1")
0.92
>>> value("O=C(c1ccc(OC2CCN(Cc3ccccn3)CC2)cc1)N1CCCCCC1")
0.85
>>> value("O=C(CN1C(=O)CC(c2ccccc2)S(=O)(=O)c2ccccc21)NC1CCCC1 (stereo not given)")
-2.04
>>> value("Cn1nnnc1SCC(=O)N1CCN(C(c2ccccc2)c2ccccc2)CC1")
11
>>> value("Cc1cc(C)c2nc(NC(=O)C3CCCO3)sc2c1 (stereo not given)")
-0.2
>>> value("CCCCCCC(O)(CCN1CCCCC1)c1ccccc1 (stereo not given)")
-3.65
>>> value("O=C(CSCc1ccc([N+](=O)[O-])cc1)NCCSCc1ccccc1")
1.53

The molecule O=C(N/N=C/c1ccc(OCC2COCCO2)cc1)c1ccc(Br)cc1 (stereo not given) , tested on Glutamate receptor ionotropic, NMDA 3A (GRIN3A) ligand-binding domain, showed Tm shift relative to glycine control of 8.82

====

Tested on: Glutamate receptor ionotropic, NMDA 3A (GRIN3A) ligand-binding domain
assay.overview: binders of NR3A ligand-binding domain, primary screen, biophysical, differential scanning fluorimetry, uHTS (AID 1259313)
condition.label: NR3A LBD differential scanning fluorimetry, at 25 µM, stronger effect = higher value, 0% = protein alone, 100% = glycine-bound protein
Among all 340,000 compounds or so, about 8,500 (2.5%) were called active. Only a selection was taken, and actives are over-represented in it overall.
observation.type: Tm shift relative to glycine control (%)
Give your result in % as a bare value.

Record excerpt, results attached:
>>> value("COc1cccc(NC(=O)CN(C)C(=O)/C=C/c2cc(OC)ccc2OC)c1")
-3.12
>>> value("O=C(NCc1cccs1)c1cc(-c2ccccn2)nc2ccc(Br)cc12")
-0.39
>>> value("CCOC(=O)c1sc(NC(=O)c2sc(C)nc2C)nc1C")
3.53
>>> value("Oc1ccc(/C=N/N(Cc2ccccc2)c2ccccc2)cc1")
8.8
>>> value("CCOC(=O)c1ccc(NC(=O)c2c(N)n(C)c(=O)[nH]c2=O)cc1")
0.72

Then there is this compound:
Reported Tm shift relative to glycine control (Glutamate receptor ionotropic, NMDA 3A (GRIN3A) ligand-binding domain) for entry CCOc1ccccc1NC(=O)Cn1nnc(C(=O)NCc2cccs2)c1N is -0.84

====

Test system: Glutamate receptor ionotropic, NMDA 3A (GRIN3A) ligand-binding domain
assay.overview: binders of NR3A ligand-binding domain, primary screen, biophysical, differential scanning fluorimetry, uHTS (AID 1259313)
condition.label: NR3A LBD differential scanning fluorimetry, at 25 µM, stronger effect = higher value, 0% = protein alone, 100% = glycine-bound protein
Out of some 340,000 compounds screened, about 8,500 (2.5%) were called active. Shown is part of a subset that was picked to be rich in actives.
observation.type: Tm shift relative to glycine control (%)
Kindly provide the numeric value in % only, without the unit symbol.

>>> value("CCOc1ccc(N/C=C/C(=O)c2ccccc2)cc1")
-12.3

// next entry
# Tm shift relative to glycine control of Cn1c(=O)[nH]c(=O)c2c1nc(CN1CCN(c3ccccc3F)CC1)n2CCc1ccccc1 = -1.61

====

System: Glutamate receptor ionotropic, NMDA 3A (GRIN3A) ligand-binding domain
assay.overview: binders of NR3A ligand-binding domain, primary screen, biophysical, differential scanning fluorimetry, uHTS (AID 1259313)
condition.label: NR3A LBD differential scanning fluorimetry, at 25 µM, stronger effect = higher value, 0% = protein alone, 100% = glycine-bound protein
Screen size: about 340,000 compounds; about 8,500 (2.5%) were called active. The full list was thinned out, with actives kept by preference.
observation.type: Tm shift relative to glycine control (%)
Give the quantity in %, number only.

>>> value("COc1ccc(-c2csc3ncnc(N4CCN(S(=O)(=O)c5ccccc5C#N)CC4)c23)cc1")
-2.57

Note to self: Tm shift relative to glycine control recorded for Cc1cc(C)c(-c2csc(NC(=O)CCCc3nc4ccccc4c(=O)[nH]3)n2)c(C)c1 was -5.38

The reported value for Cc1ccc(S(=O)(=O)NCC(=O)Nc2ccc3c(c2)OCCO3)cc1 in terms of Tm shift relative to glycine control is 0.9

Entry CCc1ccc(CN(C)C(=O)C2CCC(=O)N(Cc3cccc(OC)c3)C2)nc1 (stereo unspecified) — recorded Tm shift relative to glycine control = 1.62

Entry COC(=O)CN1C(=S)N(c2ccccc2)C(=O)C1CC(=O)Nc1ccc(Cl)cc1 (stereo unspecified) ; Tm shift relative to glycine control = 28.7

Field Tm shift relative to glycine control (entry CC(C)c1ccc(NC(=S)NNc2ccc(Cl)c(C(=O)O)c2)cc1 ) reads -0.77

Value of measured Tm shift relative to glycine control for the entry Cc1ccc(S(=O)(=O)NCC(=O)N(CC(=O)NCC2CCCO2)c2cccc(F)c2)cc1 (stereo unspecified) : -1.71

Recorded result, Clc1cc(-c2ccc(/C=N/n3cnnc3)o2)ccc1Br , Tm shift relative to glycine control: -26.7

Form field Tm shift relative to glycine control, entry Cc1oc(-c2ccccc2Cl)[n+]([O-])c1C : 0.65

Given item CC(=O)c1ccc(S(=O)(=O)NC2CC(=O)N(c3ccc4c(c3)OCCO4)C2)cc1 (stereo unspecified) , the value recorded as its Tm shift relative to glycine control is 15.5

Entry O=C(Nc1ccc(Cl)cc1)c1cccc(OC(=S)N2CCOCC2)c1 , Tm shift relative to glycine control reported as -0.47

Entry CC(C)CNS(=O)(=O)c1ccc(C(=O)Nc2ccc3c(c2)OCO3)cc1 ; Tm shift relative to glycine control = -0.27

Tm shift relative to glycine control for Cc1[nH]nc(-c2ccc(OCc3cnn(-c4ccccc4)c3)cc2O)c1Oc1ccc(Cl)cc1 is 22.7

Entry under test: Cc1nc([N+](=O)[O-])c(NCCCO)n1Cc1ccccc1 . Its Tm shift relative to glycine control was -1.5

Entry under test: CC(=O)c1ccccc1NC(=O)C1CC(=O)N(c2ccc3c(c2)OCCO3)C1 (stereo unspecified) . Its Tm shift relative to glycine control was -0.26

Reported Tm shift relative to glycine control of CC(C)S(=O)(=O)c1csc(NC(=O)Nc2ccc(Cl)cc2)c1Cl : 24.3

====

Tested on: Glutamate receptor ionotropic, NMDA 3A (GRIN3A) ligand-binding domain
assay.overview: binders of NR3A ligand-binding domain, primary screen, biophysical, differential scanning fluorimetry, uHTS (AID 1259313)
condition.label: NR3A LBD differential scanning fluorimetry, at 25 µM, stronger effect = higher value, 0% = protein alone, 100% = glycine-bound protein
The whole screen tested about 340,000 compounds, of which about 8,500 (2.5%) were called active. Many of the other results were omitted from the sample, so actives are more common in it than they were.
observation.type: Tm shift relative to glycine control (%)
Dear colleague, please return just the value in %, with no unit written.

>>> value("O=C(Nc1nc2ccc([N+](=O)[O-])cc2s1)c1ccc(S(=O)(=O)N2CCCc3ccccc32)cc1")
18.8
>>> value("Cc1ccc(CNC(=O)Cn2cnc3c(NCc4ccccc4)ncnc32)o1")
3
>>> value("CCOc1ccc(-n2c(SCC(=O)NC3CCS(=O)(=O)C3)nnc2-c2cccnc2)cc1 (configuration not stated)")
-1.01
>>> value("O=C(CN1CCN(S(=O)(=O)c2ccc(Cl)s2)CC1)NCc1ccc(Cl)cc1")
-1.27
>>> value("CC(=O)c1c(Nc2ccccc2)sc(C(=O)c2ccccc2)c1C")
13.4

compound Cc1nc2ccc(C(=O)N/N=C/c3ccc(O)cc3)cc2[nH]1 , Tm shift relative to glycine control observed: -4.58

Lab note: measured Tm shift relative to glycine control of C/C=C(/C)C(=O)O[C@@H]1c2cc3c(c4c2[C@@]2(CO4)C(=O)C(OC)=C(OC)C=C2C[C@@H](C)[C@H]1C)OCO3 was 0.32

Origin of values: PubChem BioAssay AID1259313
